- Target Entity: IRAK4 (Homo sapiens)
- Assay Summary: 2-hour 1 mM ATP IRAK4 Biochemical assay (as above, but with 100 pM IRAK4 and 1 mM ATP)
- Assay Conditions: IRAK4 MSD BIOCHEMICAL (1 mM ATP) IC50 (μM), 100 pM IRAK4, 2 hours
Counter-ions that a name gives are not always drawn.
Result Type: IC50 (µM)

>  <Compound>
Cc1nc(C(=O)Nc2cn3cc(C45COC(C)(C4)C5)nc3c(OC3CCC3)n2)co1

>  <Target Entity>
IRAK4 (Homo sapiens)

>  <Measurement Unit>
µM

>  <IC50>
0.02

$$$$
>  <Compound>
CCC(C)Oc1c(NC(=O)c2cccnc2OC)cn2cc(C34COC(C)(C3)C4)nc2c1F (single isomer, unassigned) [Example 327]

>  <Target Entity>
IRAK4 (Homo sapiens)

>  <Measurement Unit>
µM

>  <IC50>
0.02

$$$$
>  <Compound>
COc1nc(NC(=O)c2cccc(C(F)(F)F)n2)cn2cc(C34COC(C)(C3)C4)nc12 [Example 449, 2,2,2-trifluoroacetate]

>  <Target Entity>
IRAK4 (Homo sapiens)

>  <Measurement Unit>
µM

>  <IC50>
0.064

$$$$

I: CC(C)Oc1c(NC(=O)c2ccn(C)n2)cn2cc(C34CCC(C)(C3)OC4)nc2c1F (stereo not shown)
II: CCOc1cc2nc(C3CCOCC3)cn2cc1NC(=O)c1ccn(C(C)C)n1
Please compare: I and II . Report which one has the smaller IC50 value. Returns: label corresponding to the selected item.
I

I: CCOc1cc2nc(C34CC(C)(C3)C4)cn2cc1NC(=O)c1cccc(C(F)(F)F)n1 [Example 520, 2,2,2-trifluoroacetate]
II: COc1nc(NC(=O)c2ccn(C)n2)cn2cc(C34COC(C)(C3)C4)nc12
III: O=C(Nc1cc(OC(F)F)c2nc(C3CCOCC3)cn2c1)c1cccc(C(F)F)n1
Hi! Can you put these in order of IC50, lowest number first? In plain terms: list the labels in the order you were asked to.
I, III, II
(I: 0.005 µM, III: 0.015 µM, II: 0.118 µM)

1: CCOc1nc2nc(C3CCOCC3)cn2cc1NC(=O)c1ccc2c(n1)CCC2 [Example 570, hydrochloride]
2: O=C(Nc1cn2cc(C3CCOCC3)nc2cc1OCC1CC12CCOC2)c1cccc(C(F)F)n1 (stereo not shown)
3: CCOc1cc2nc(CCCOC)cn2cc1NC(=O)c1cccc(OC)n1
4: COc1cc(NC(=O)c2csc(C3CC3)n2)cn2cc(C3CCOCC3)nc12
5: O=C(Nc1cn2cc(C3CCCOC3)nc2c(OC(F)F)n1)c1cccc(C(F)F)n1 (single isomer, unassigned)
Output the entries ranked by IC50 from maximum down to minimum. In plain terms: list the labels in the order you were asked to.
4, 3, 5, 1, 2

---

- Target Entity: IRAK4 (Homo sapiens, UniProt Q9NWZ3)
- Sequence (Q9NWZ3 whole entry): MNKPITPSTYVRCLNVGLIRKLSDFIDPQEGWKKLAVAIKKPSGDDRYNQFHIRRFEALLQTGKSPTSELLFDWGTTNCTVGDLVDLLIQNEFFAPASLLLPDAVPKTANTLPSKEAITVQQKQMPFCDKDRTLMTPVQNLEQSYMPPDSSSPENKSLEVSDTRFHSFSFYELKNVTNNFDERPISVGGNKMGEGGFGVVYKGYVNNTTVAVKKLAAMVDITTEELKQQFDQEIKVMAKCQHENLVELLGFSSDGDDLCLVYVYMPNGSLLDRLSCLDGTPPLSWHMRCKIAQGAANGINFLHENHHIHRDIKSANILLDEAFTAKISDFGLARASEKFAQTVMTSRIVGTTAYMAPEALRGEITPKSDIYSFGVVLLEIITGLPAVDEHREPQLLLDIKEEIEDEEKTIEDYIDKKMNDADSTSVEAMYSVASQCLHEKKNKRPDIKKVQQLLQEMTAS
- Assay Summary: 2-hour 1 mM ATP IRAK4 Biochemical assay (as above, but with 100 pM IRAK4 and 1 mM ATP)
- Assay Conditions: IRAK4 MSD BIOCHEMICAL (1 mM ATP) IC50 (μM), 100 pM IRAK4, 2 hours
Result Type: IC50 (µM)

Guide cases for IC50, answers given:
>  <Compound>
CCOc1cc(NC(=O)c2cccc(C(F)F)n2)cn2cc([C@@H]3C4COC[C@H]43)nc12 (relative stereo) [Example 306]

>  <Target Entity>
IRAK4 (Homo sapiens, UniProt Q9NWZ3)

>  <IC50 / µM>
0.007

$$$$
>  <Compound>
COCc1cc2nc(C3CCOCC3)cn2cc1NC(=O)c1cccc(C)n1 [Example 371, 2,2,2-trifluoroacetate]

>  <Target Entity>
IRAK4 (Homo sapiens, UniProt Q9NWZ3)

>  <IC50 / µM>
0.035

$$$$
>  <Compound>
CC(C)Oc1nc2nc(C34COC(C)(C3)C4)cn2cc1NC(=O)c1cccn(C(F)F)c1=O [Example 496, 2,2,2-trifluoroacetate]

>  <Target Entity>
IRAK4 (Homo sapiens, UniProt Q9NWZ3)

>  <IC50 / µM>
0.001

$$$$
>  <Compound>
COc1nc(NC(=O)c2cccc(C(F)F)n2)cn2cc(C34COC(CF)(C3)C4)nc12 [Example 559]

>  <Target Entity>
IRAK4 (Homo sapiens, UniProt Q9NWZ3)

>  <IC50 / µM>
0.012

$$$$

A: CC(C)Oc1c(NC(=O)c2cccn(C(F)F)c2=O)cn2cc(C34COC(C)(C3)C4)nc2c1F [Example 324]
B: CCOc1cc2nc(CCCOC)cn2cc1NC(=O)c1ccn(C(F)F)n1 [Example 88]
Please compare: A and B . Report which one has the smaller IC50 value. Returns: label corresponding to the selected item.
A
